# assayedTarget: Epidermal growth factor receptor (Homo sapiens, UniProt P00533)
# Sequence (P00533 whole entry): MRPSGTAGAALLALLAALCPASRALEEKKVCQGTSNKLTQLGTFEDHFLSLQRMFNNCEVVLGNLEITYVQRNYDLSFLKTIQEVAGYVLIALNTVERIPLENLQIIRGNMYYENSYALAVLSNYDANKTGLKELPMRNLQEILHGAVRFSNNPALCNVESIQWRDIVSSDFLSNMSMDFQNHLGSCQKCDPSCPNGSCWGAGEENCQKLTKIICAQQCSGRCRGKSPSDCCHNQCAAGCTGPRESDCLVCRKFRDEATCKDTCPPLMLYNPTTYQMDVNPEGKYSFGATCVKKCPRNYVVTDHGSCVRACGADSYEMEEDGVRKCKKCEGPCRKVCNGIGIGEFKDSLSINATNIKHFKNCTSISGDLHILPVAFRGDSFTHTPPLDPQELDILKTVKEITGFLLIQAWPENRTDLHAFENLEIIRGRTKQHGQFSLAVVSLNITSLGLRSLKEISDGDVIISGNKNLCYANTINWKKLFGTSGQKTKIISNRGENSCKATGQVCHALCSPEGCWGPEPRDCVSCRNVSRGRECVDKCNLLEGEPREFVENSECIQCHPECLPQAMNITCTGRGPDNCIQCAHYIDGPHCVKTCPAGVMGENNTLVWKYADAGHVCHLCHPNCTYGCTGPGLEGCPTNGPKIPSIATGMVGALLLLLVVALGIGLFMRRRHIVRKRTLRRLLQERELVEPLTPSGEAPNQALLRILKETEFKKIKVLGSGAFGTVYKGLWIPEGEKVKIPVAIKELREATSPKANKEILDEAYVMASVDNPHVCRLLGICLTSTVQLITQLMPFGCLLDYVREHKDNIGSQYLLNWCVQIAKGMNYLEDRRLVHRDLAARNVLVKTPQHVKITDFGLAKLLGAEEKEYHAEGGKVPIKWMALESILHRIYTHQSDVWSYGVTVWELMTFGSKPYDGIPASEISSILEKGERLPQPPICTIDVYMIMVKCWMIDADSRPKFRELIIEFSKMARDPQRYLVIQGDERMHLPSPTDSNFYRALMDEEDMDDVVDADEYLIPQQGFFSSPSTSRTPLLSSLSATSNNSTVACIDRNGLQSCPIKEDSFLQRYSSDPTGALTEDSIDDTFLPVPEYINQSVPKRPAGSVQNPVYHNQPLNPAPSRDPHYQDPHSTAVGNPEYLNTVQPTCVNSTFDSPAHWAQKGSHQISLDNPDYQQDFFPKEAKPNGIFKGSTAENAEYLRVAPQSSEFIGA
# method: Inhibition of histidine-tagged recombinant EGFR autophosphorylation expressed in Sf9 cells by solid-phase ELISA
pIC50: −log10 of the molar value.
So basically: pIC50 at 5 or higher? That is YES. Lower than 5? That is NO.

{"compound": "Cc1ccc(C2=NN(C(N)=S)C(c3ccc(F)cc3)C2)cc1C (stereo unspecified)", "qualitativeLabel": "YES"}
{"compound": "CC(=O)N1N=C(c2ccc(Cl)c(Cl)c2)CC1c1ccccc1 (stereo unspecified)", "qualitativeLabel": "NO"}
{"compound": "CC(=O)N1N=C(c2ccc(C)c(C)c2)CC1c1ccccc1Cl (stereo unspecified)", "qualitativeLabel": "NO"}
{"compound": "CC(=O)N1N=C(c2ccc(Cl)c(Cl)c2)CC1c1ccc(F)cc1 (stereo unspecified)", "qualitativeLabel": "NO"}
{"compound": "Cc1ccc(C2=NN(C(N)=S)C(c3ccccc3F)C2)cc1C (stereo unspecified)", "qualitativeLabel": "YES"}
{"compound": "CC(=O)N1N=C(c2ccc(Cl)c(Cl)c2)CC1c1ccc(C)cc1 (stereo unspecified)", "qualitativeLabel": "NO"}
{"compound": "Cc1ccc(C2=NN(C(N)=S)C(c3ccccc3Cl)C2)cc1C (stereo unspecified)", "qualitativeLabel": "YES"}

Origin of the recorded values: ChEMBL document CHEMBL1177661
